molecular target: Motilin receptor (Oryctolagus cuniculus, UniProt A5A4K8); test: Antagonist activity at MTL receptor in rabbit duodenum homogenate; type: functional, tissue-based; conditions: read-out: pA2 (converted)
Sequence (A5A4K8 whole entry): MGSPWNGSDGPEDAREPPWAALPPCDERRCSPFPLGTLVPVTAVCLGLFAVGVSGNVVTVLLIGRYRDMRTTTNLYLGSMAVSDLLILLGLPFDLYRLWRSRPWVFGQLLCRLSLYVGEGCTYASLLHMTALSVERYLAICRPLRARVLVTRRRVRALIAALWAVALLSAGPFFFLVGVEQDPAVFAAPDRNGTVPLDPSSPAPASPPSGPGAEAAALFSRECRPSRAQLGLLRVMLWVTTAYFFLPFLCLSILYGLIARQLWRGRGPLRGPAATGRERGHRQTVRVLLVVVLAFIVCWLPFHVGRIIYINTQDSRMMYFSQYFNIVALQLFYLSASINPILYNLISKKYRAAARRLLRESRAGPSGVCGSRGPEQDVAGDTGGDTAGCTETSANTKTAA
Where a SMILES comes first, the peptide text is derived from it.
measurementKind: Kb (nM)
Response body: numeric value in nM, unit text excluded.

{"molecule": "CC(C)(C)c1cc(C[C@H](NC(=O)[C@H](Cc2ccccc2)NC(=O)[C@@H](N)Cc2ccccc2)C(N)=O)ccc1O (HELM PEPTIDE1{F.F.[CC(C)(C)c1cc(C[C@H](N[*:1])C(=O)[*:2])ccc1O].[am]}$$$$V2.0)", "measurementKind": "Kb", "endpointValue": 63.1}
{"molecule": "CC(C)[C@@H](C(=O)N(C)[C@@H](Cc1ccc(O)c(C(C)(C)C)c1)C(N)=O)N(C)C(=O)[C@@H](N)Cc1ccccc1 (HELM PEPTIDE1{F.[meV].[CN([C@@H](Cc1ccc(O)c(C(C)(C)C)c1)C(=O)[*:2])[*:1]].[am]}$$$$V2.0)", "measurementKind": "Kb", "endpointValue": 2.51}
{"molecule": "CC(C)C[C@H](NC(=O)[C@@H](N)Cc1ccccc1)C(=O)N[C@@H](Cc1ccc(O)c(C(C)(C)C)c1)C(N)=O (HELM PEPTIDE1{F.L.[CC(C)(C)c1cc(C[C@H](N[*:1])C(=O)[*:2])ccc1O].[am]}$$$$V2.0)", "measurementKind": "Kb", "endpointValue": 50.1}

Query: Value lookup for Kb; key = CC(C)[C@H](NC(=O)[C@@H](N)Cc1ccccc1)C(=O)N(C)[C@@H](Cc1ccc(O)c(C(C)(C)C)c1)C(N)=O (HELM PEPTIDE1{F.V.[CN([C@@H](Cc1ccc(O)c(C(C)(C)C)c1)C(=O)[*:2])[*:1]].[am]}$$$$V2.0)
Reply: 63.1

Query: Could you do the same for CC(C)(C)c1cc(C[C@H](NC(=O)[C@@H](NC(=O)[C@@H](N)Cc2ccccc2)c2ccccc2)C(N)=O)ccc1O (HELM PEPTIDE1{F.[Phg].[CC(C)(C)c1cc(C[C@H](N[*:1])C(=O)[*:2])ccc1O].[am]}$$$$V2.0) , please?
Reply: 15.8

Query: Could you do the same for `CC(C)[C@@H](C(=O)N[C@H](C)Cc1ccc(O)c(C(C)(C)C)c1)N(C)C(=O)[C@@H](N)Cc1ccccc1` , please?
Reply: 3.98

Query: Could you do the same for `CC(C)(C)c1cc(C[C@@H]2NC(=O)[C@@H](NC(=O)[C@@H](N)Cc3ccccc3)CCCCCC(=O)CCNC2=O)ccc1O` , please?
Reply: 39.8

Query: Could you do the same for CC(C)[C@@H](C(=O)N[C@@H](Cc1ccc(O)c(C(C)(C)C)c1)C(N)=O)N(C)C(=O)[C@@H](N)Cc1ccccc1 (HELM PEPTIDE1{F.[meV].[CC(C)(C)c1cc(C[C@H](N[*:1])C(=O)[*:2])ccc1O].[am]}$$$$V2.0) , please?
Reply: 12.6

Query: Could you do the same for CC(C)[C@H](NC(=O)[C@@H](N)Cc1ccccc1)C(=O)N[C@@H](Cc1ccc(O)c(C(C)(C)C)c1)C(N)=O (HELM PEPTIDE1{F.V.[CC(C)(C)c1cc(C[C@H](N[*:1])C(=O)[*:2])ccc1O].[am]}$$$$V2.0) , please?
Reply: 126

###

Here we list molecules with their recorded pIC50 when tested on Motilin receptor (Oryctolagus cuniculus).
Where a SMILES comes first, the peptide text is derived from it.
Reminder that pIC50 means the negative base-10 logarithm of the concentration expressed in mol/L.

Consider the reported pIC50 for these molecules:
{"molecule": "CC(C)[C@@H](C(=O)N[C@H](C)Cc1ccc(O)c(C(C)(C)C)c1)N(C)C(=O)[C@@H](N)Cc1ccccc1", "pIC50": 8.72}
{"molecule": "C[C@H](NC(=O)[C@@H](N)Cc1ccccc1)C(=O)N[C@@H](Cc1ccc(O)c(C(C)(C)C)c1)C(N)=O (HELM PEPTIDE1{F.A.[CC(C)(C)c1cc(C[C@H](N[*:1])C(=O)[*:2])ccc1O].[am]}$$$$V2.0)", "pIC50": 6.73}
{"molecule": "CC(C)(C)c1cc(C[C@H](NC(=O)[C@@H](NC(=O)[C@@H](N)Cc2ccccc2)c2ccccc2)C(N)=O)ccc1O (HELM PEPTIDE1{F.[Phg].[CC(C)(C)c1cc(C[C@H](N[*:1])C(=O)[*:2])ccc1O].[am]}$$$$V2.0)", "pIC50": 7.92}
{"molecule": "CC(C)(C)c1cc(C[C@@H]2NC(=O)[C@@H](NC(=O)[C@@H](N)Cc3ccccc3)CCCCCC(=O)CCNC2=O)ccc1O", "pIC50": 7.92}

We next turn to a different molecule, shown below.
Query: Value lookup for pIC50; key = CC(C)[C@H](NC(=O)[C@@H](N)Cc1ccccc1)C(=O)N[C@@H](Cc1ccc(O)c(C(C)(C)C)c1)C(N)=O (HELM PEPTIDE1{F.V.[CC(C)(C)c1cc(C[C@H](N[*:1])C(=O)[*:2])ccc1O].[am]}$$$$V2.0)
Reply: 7.34

###

assay: Oral bioavailability in rat at 10 mg/kg; format: ADME, organism-based; conditions: in vivo
Where a SMILES comes first, the peptide text is derived from it.
measurementKind: bioavailability
I'd appreciate it if you wrote the number followed by its unit.

Consider the reported bioavailability for these molecules:
{"molecule": "CC(C)[C@@H](C(=O)N[C@H](C)Cc1ccc(O)c(C(C)(C)C)c1)N(C)C(=O)[C@@H](N)Cc1ccccc1", "bioavailability": "65%"}
{"molecule": "CC(C)[C@@H](C(=O)N[C@@H](Cc1ccc(O)c(C(C)(C)C)c1)C(N)=O)N(C)C(=O)[C@@H](N)Cc1ccccc1 (HELM PEPTIDE1{F.[meV].[CC(C)(C)c1cc(C[C@H](N[*:1])C(=O)[*:2])ccc1O].[am]}$$$$V2.0)", "bioavailability": "6%"}

We next turn to a different molecule, shown below.
Query: Value lookup for bioavailability; key = CC(C)[C@@H](C(=O)N(C)[C@@H](Cc1ccc(O)c(C(C)(C)C)c1)C(N)=O)N(C)C(=O)[C@@H](N)Cc1ccccc1 (HELM PEPTIDE1{F.[meV].[CN([C@@H](Cc1ccc(O)c(C(C)(C)C)c1)C(=O)[*:2])[*:1]].[am]}$$$$V2.0)
Reply: 30%

###

remaining at 0.5 h values for the compounds below.
assay: Metabolic stability in rat liver S9 fraction assessed as compound remaining after 30 mins; type: ADME, subcellular; details: read-out: Stability
Where a SMILES comes first, the peptide text is derived from it.
Response body: numeric value in %, unit text excluded.

{"compound": "CC(C)[C@@H](C(=O)N[C@@H](Cc1ccc(O)c(C(C)(C)C)c1)C(N)=O)N(C)C(=O)[C@@H](N)Cc1ccccc1 (HELM PEPTIDE1{F.[meV].[CC(C)(C)c1cc(C[C@H](N[*:1])C(=O)[*:2])ccc1O].[am]}$$$$V2.0)", "endpointValue": 69}
{"compound": "CC(C)[C@@H](C(=O)N[C@H](C)Cc1ccc(O)c(C(C)(C)C)c1)N(C)C(=O)[C@@H](N)Cc1ccccc1", "endpointValue": 100}
{"compound": "CC(C)[C@@H](C(=O)N(C)[C@@H](Cc1ccc(O)c(C(C)(C)C)c1)C(N)=O)N(C)C(=O)[C@@H](N)Cc1ccccc1 (HELM PEPTIDE1{F.[meV].[CN([C@@H](Cc1ccc(O)c(C(C)(C)C)c1)C(=O)[*:2])[*:1]].[am]}$$$$V2.0)", "endpointValue": 80}

Query: Value lookup for remaining at 0.5 h; key = CC(C)[C@H](NC(=O)[C@@H](N)Cc1ccccc1)C(=O)N(C)[C@@H](Cc1ccc(O)c(C(C)(C)C)c1)C(N)=O (HELM PEPTIDE1{F.V.[CN([C@@H](Cc1ccc(O)c(C(C)(C)C)c1)C(=O)[*:2])[*:1]].[am]}$$$$V2.0)
Reply: 7

###

assay: Apparent permeability across human Caco-2 cells at pH 6.8; type: ADME, cell-based; settings: Caco-2, pH 6.8
Where a SMILES comes first, the peptide text is derived from it.
measurementKind: Papp (×10⁻⁶ cm/s)
Response body: numeric value in ×10⁻⁶ cm/s, unit text excluded.

{"compound": "CC(C)[C@@H](C(=O)N(C)[C@@H](Cc1ccc(O)c(C(C)(C)C)c1)C(N)=O)N(C)C(=O)[C@@H](N)Cc1ccccc1 (HELM PEPTIDE1{F.[meV].[CN([C@@H](Cc1ccc(O)c(C(C)(C)C)c1)C(=O)[*:2])[*:1]].[am]}$$$$V2.0)", "measurementUnits": "×10⁻⁶ cm/s", "Papp": 2.31}

We next turn to a different compound, shown below.
Query: Value lookup for Papp; key = `CC(C)[C@@H](C(=O)N[C@H](C)Cc1ccc(O)c(C(C)(C)C)c1)N(C)C(=O)[C@@H](N)Cc1ccccc1`
Reply: 12.1

Attribution: ChEMBL document CHEMBL1137004
